Compiled literature log10 of IC50, tested on Protease (Human immunodeficiency virus 1, UniProt Q9YQ12).
Please be aware that the numbers have been log10-transformed from IC50 in µM.

Consider the following illustrative entries.
Cc1c(O)cccc1N(CC(=O)N[C@@H](Cc1ccccc1)[C@H](O)CN(CC(C)C)S(=O)(=O)c1ccc(N)cc1)CC(=O)N1CCOCC1
0.44
Cc1ncnc2c1ncn2CC(=O)N[C@@H](Cc1ccccc1)[C@H](O)CN(CC(C)C)S(=O)(=O)c1ccc([N+](=O)[O-])cc1
0.40
CCC(C)[C@H](NC(=O)[C@H](Cc1cccc2ccccc12)CS(=O)(=O)C(C)(C)C)C(=O)N[C@@H](Cc1ccccc1)[C@@H](O)[C@H](O)[C@H](Cc1ccccc1)NC(=O)[C@@H](NC(=O)[C@H](Cc1cccc2ccccc12)CS(=O)(=O)C(C)(C)C)C(C)CC (some centres not stated)
-3.52
CC(C)[C@H](NC(=O)CCCCCNC(=O)[C@]12CCC(C)(C)C[C@H]1C1=CC[C@@H]3[C@@]4(C)CC[C@H](OC(=O)CCC(=O)O)C(C)(C)[C@@H]4CC[C@@]3(C)[C@]1(C)CC2)C(=O)O
0.98

Now consider a different compound.
// query // map CC(C)[C@H](NC(=O)COc1ccccc1)C(=O)N[C@@H](Cc1ccccc1)[C@@H](O)[C@@H]1O[C@H]1Cc1ccccc1 to recorded log10 of IC50 (system: Protease (Human immunodeficiency virus 1, UniProt Q9YQ12))
// result -0.17
